Values of IC50 reported for Catechol O-methyltransferase (Rattus norvegicus, UniProt P22734) appear below.
metricName: IC50 (nM)

The compound identified as CN(C)C(=O)c1cc(O)c(O)c(C(=O)NC/C=C/[C@H]2O[C@@H](n3cnc4c(N)ncnc43)[C@H](O)C2O)c1 (stereo partly drawn) [Bi-substrate Inhibitor, 1s] registered its IC50 at 2000

[I] CN(C)C(=O)/C=C/c1cc(O)c(O)c(C(=O)NC/C=C/[C@H]2O[C@@H](n3cnc4c(N)ncnc43)[C@H](O)[C@@H]2O)c1 [Bi-substrate Inhibitor, 1o]
[II] Nc1ncnc2c1ncn2[C@@H]1O[C@H](/C=C/CNC(=O)c2cc(C(=O)C(F)(F)F)cc(O)c2O)[C@@H](O)[C@H]1O [Bi-substrate Inhibitor, 1k]
In the pair I and II , the larger recorded IC50 belongs to which? Answer by quoting the chosen item's label.
I
(I: 97 nM, II: 39 nM)

---

- testTarget: Catechol O-methyltransferase (Rattus norvegicus, UniProt P22734)
- Sequence (P22734 whole entry): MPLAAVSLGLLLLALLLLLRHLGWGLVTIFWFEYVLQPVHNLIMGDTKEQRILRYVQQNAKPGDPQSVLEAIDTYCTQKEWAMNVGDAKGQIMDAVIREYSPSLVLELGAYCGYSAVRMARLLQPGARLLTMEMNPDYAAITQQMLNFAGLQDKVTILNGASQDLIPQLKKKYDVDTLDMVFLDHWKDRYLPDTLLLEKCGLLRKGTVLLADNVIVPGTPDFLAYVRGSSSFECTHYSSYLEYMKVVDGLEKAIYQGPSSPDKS
metricName: IC50 (nM)

The compound identified as N#Cc1cc(O)c(O)c(C(=O)NC/C=C/[C@H]2O[C@@H](n3cnc4c(N)ncnc43)[C@H](O)[C@@H]2O)c1 [Bi-substrate Inhibitor, 1h] registered its IC50 at 29

[a] Nc1ncnc2c1ncn2[C@@H]1O[C@H](/C=C/CNC(=O)c2cc(-c3ccncc3)cc(O)c2O)[C@@H](O)[C@H]1O [Bi-substrate Inhibitor, 1d]
[b] Cc1ccc(S(=O)(=O)c2cc(O)c(O)c(C(=O)NC/C=C/[C@H]3O[C@@H](n4cnc5c(N)ncnc54)[C@H](O)C3O)c2)cc1 (stereo partly specified) [Bi-substrate Inhibitor, 1p]
[c] Nc1ncnc2c1ncn2[C@@H]1O[C@H](/C=C/CNC(=O)c2cc([N+](=O)[O-])cc(O)c2O)[C@@H](O)[C@H]1O [Bi-substrate Inhibitor, 1a]
[d] Nc1ncnc2c1ncn2[C@@H]1O[C@H](/C=C/CNC(=O)c2cccc(O)c2O)C(O)[C@H]1O (stereo partly specified) [Bi-substrate Inhibitor, 1t]
hey, can you rank those compounds up there by IC50? biggest number first please API: response body holds the labels in the requested order.
d, b, a, c
(d: 2600 nM, b: 213 nM, a: 23 nM, c: 9 nM)

---

Target sequence: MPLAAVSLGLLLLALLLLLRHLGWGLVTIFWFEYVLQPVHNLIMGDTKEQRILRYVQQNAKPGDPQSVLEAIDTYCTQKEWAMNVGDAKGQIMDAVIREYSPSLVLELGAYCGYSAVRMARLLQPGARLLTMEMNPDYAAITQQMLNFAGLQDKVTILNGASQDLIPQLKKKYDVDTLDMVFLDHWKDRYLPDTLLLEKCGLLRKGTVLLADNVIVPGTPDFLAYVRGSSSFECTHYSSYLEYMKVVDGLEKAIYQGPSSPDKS
metricName: IC50 (nM)

The compound identified as Nc1ncnc2c1ncn2[C@@H]1O[C@H](/C=C/CNC(=O)c2cc(-c3nccs3)cc(O)c2O)[C@@H](O)[C@H]1O [Bi-substrate Inhibitor, 1e] registered its IC50 at 27

[A] Nc1ncnc2c1ncn2[C@@H]1O[C@H](/C=C/CNC(=O)c2cc(Br)cc(O)c2O)[C@@H](O)[C@H]1O [Bi-substrate Inhibitor, 1f]
[B] Nc1ncnc2c1ncn2[C@@H]1O[C@H](/C=C/CNC(=O)c2cc(Cl)cc(O)c2O)[C@@H](O)[C@H]1O [Bi-substrate Inhibitor, 1m]
Of A and B , which shows the smaller IC50 value? Answer by quoting the chosen item's label.
A
(A: 28 nM, B: 44 nM)
